Can you tell me IC50 for the items I'm about to list?
- targetOfAssay: PI3Kα (p110α/p85α) (Homo sapiens, UniProt P42336)
- Sequence (P42336 whole entry): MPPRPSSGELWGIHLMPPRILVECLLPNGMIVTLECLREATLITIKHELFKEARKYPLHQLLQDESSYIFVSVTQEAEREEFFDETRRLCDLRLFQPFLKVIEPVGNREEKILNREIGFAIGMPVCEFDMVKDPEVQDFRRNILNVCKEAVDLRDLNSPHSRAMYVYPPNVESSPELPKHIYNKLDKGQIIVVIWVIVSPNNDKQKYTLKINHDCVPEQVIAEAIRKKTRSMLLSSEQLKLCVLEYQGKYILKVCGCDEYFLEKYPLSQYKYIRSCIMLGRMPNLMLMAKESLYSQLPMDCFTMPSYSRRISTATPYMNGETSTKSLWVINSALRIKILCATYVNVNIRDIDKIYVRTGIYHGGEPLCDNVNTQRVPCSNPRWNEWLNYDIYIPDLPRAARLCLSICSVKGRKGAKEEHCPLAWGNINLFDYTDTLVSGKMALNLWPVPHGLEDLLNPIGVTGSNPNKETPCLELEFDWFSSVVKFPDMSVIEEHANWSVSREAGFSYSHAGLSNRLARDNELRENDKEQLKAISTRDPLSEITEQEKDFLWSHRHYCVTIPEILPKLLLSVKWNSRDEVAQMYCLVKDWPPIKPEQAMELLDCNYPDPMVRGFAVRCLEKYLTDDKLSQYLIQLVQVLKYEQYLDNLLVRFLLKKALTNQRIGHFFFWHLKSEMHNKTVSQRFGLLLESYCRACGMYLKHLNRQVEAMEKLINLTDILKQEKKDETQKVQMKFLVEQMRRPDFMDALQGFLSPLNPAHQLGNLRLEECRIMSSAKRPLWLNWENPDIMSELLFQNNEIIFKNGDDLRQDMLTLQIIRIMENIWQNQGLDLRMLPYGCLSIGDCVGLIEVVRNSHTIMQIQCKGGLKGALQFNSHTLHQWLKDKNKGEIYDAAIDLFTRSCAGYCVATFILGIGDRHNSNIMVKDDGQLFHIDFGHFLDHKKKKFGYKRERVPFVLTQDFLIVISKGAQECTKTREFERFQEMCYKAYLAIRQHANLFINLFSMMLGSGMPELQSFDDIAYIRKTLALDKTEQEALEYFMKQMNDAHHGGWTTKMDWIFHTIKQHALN
- Sequence (P27986 whole entry partner): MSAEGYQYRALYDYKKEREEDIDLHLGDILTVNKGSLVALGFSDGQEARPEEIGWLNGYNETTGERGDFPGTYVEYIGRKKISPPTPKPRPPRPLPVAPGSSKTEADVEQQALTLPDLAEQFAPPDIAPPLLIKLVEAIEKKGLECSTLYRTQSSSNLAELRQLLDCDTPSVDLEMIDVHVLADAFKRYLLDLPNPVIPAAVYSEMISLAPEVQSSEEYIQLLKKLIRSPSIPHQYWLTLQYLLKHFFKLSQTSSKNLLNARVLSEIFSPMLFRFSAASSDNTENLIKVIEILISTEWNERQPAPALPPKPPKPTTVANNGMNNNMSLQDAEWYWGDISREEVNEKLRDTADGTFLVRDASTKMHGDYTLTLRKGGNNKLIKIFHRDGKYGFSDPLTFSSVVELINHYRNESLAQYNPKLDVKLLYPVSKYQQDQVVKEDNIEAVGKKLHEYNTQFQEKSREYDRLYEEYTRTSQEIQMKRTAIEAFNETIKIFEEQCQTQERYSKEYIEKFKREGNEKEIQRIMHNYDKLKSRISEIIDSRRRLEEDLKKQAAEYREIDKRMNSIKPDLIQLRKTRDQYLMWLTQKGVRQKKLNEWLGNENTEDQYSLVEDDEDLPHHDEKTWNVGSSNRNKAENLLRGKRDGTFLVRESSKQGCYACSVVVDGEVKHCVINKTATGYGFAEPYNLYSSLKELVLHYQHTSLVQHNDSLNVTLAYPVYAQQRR
- assayComment: HTRF assay, potency against active PI3Kα
- conditionContext: HTRF; [ATP]=50 μM, [di-C8-PIP2]=10 μM; 30 min pre-incubation; read-out: PI3Kα Inhibition

> print(dat)
                                        mol  testvalue
1  C/C=C/C(=O)CCC(=O)N1CC=C(c2cc3nc(-c4cccc(O)c4)nc(N4CCOCC4)c3s2)CC1  < 0.01 µM
2  C=CC(=O)NCCN1CCN(Cc2cc3nc(-c4cccc5[nH]ncc45)nc(N4CCOCC4)c3s2)CC1     > 1 µM

Field: IC50. Fill in for each record below.
1. C/C=C/C(=O)CCC(=O)NCCS(=O)(=O)N1CCN(Cc2cc3nc(-c4cccc(O)c4)nc(N4CCOCC4)c3s2)CC1
2. C=CC(=O)NCCCC(=O)N1CCN(Cc2cc3nc(-c4cccc5[nH]ncc45)nc(N4CCOCC4)c3s2)CC1
3. C/C=C/C(=O)CCC(=O)NC1CCN(c2ccc(-c3cc4nc(-c5cccc(O)c5)nc(N5CCOCC5)c4s3)cc2)CC1
4. C=CC(=O)NCC(=O)NCc1ccc(-c2cc3nc(-c4cccc5[nH]ncc45)nc(N4CCOCC4)c3s2)cc1
5. C=CC(=O)Nc1ccc(CCNC(=O)c2cc3nc(-c4cccc5[nH]ncc45)nc(N4CC5(COC5)C4)c3s2)cc1

Completion:
["0.01 to 0.1 µM", "0.1 to 1 µM", "< 0.01 µM", "0.1 to 1 µM", "> 1 µM"]
